Source: PubChem BioAssay (NCATS)

# Tested on: TAB165
# Test: qHTS profiling for inhibitors of Plasmodium falciparum proliferation (AID 504749); also: nearly all actives have a fitted effect of over 60% in size
# Measurement parameters: P. falciparum in erythrocytes, SYBR Green DNA, 72 h; series mostly up to 12.8 µM
Records with an inconclusive call do not appear. Active and inactive are the calls of the source. Calls follow the shape of the dose curve; as a rule, active = well fitted inhibition curve with a large enough effect; inconclusive = small, poorly fitted or top-dose-only effect; inactive = flat fitted curve, though single readings scatter. Peptide text beside a SMILES is read from it.
Possible outcomes: true = active, false = inactive

| Molecule | Measurement target | Qualitative label |
| --- | --- | --- |
| CN[C@H]1[C@@H](O)[C@@H](NC)[C@@H]2O[C@@]3(O)C(=O)C[C@@H](C)O[C@H]3O[C@H]2[C@H]1O | TAB165 | false |
| O=C1OC(CO)C(O)C(O)C1O (centres undefined) | TAB165 | false |
| C[C@@H]1Cc2ccccc2N1NC(=O)c1ccc(Cl)c(S(N)=O)c1 (some centres undefined) | TAB165 | false |
| CCC(=O)[C@@]1(C)[C@H](C)C[C@@H]2[C@@H]3CCC4=CC(=O)C=C[C@@]4(C)[C@H]3[C@H](O)C[C@]21C | TAB165 | false |
| C[C@H]1CS(=O)(=O)CCN1/N=C\c1ccc([N+](=O)[O-])o1 | TAB165 | false |
| CO[C@]12C(COC(N)=O)C3=C(C(=O)C(C)=C(N)C3=O)N1CC1NC12 (some centres undefined) | TAB165 | true |
| COc1ccc(OC)c([C@H](O)CNC(=O)CN)c1 | TAB165 | false |
| Cc1ncc([N+](=O)[O-])n1C[C@H](O)CCl | TAB165 | false |
| CC(=O)N[C@H](CC(C)C)C(=O)O | TAB165 | false |
| CC1(C)S[C@@H]2[C@H](NC(=O)[C@@H](N)c3ccccc3)C(=O)N2[C@H]1C(=O)O[C@H]1OC(=O)c2ccccc21 | TAB165 | false |
| C=CCN1C(=CCO)[C@H]2C[C@H]3[C@@H]1CC[C@@]31c3ccccc3N3C=C4[C@@H]5N(/C=C/2[C@H]31)c1ccccc1[C@]51CC[C@H]2[C@H]1C[C@@H]4/C(=C/CO)N2CC=C | TAB165 | false |
| OCC1OC(n2cnc3c(=S)nc[nH]c32)C(O)C1O (centres undefined) | TAB165 | false |
| CN1C(=O)C[C@H](c2ccccc2)C1=O | TAB165 | false |
| COC(=O)[C@@H]1[C@@H]2C[C@H]3c4[nH]c5cc(OC)ccc5c4CCN3C[C@@H]2C[C@H](OC(=O)/C=C\c2cc(OC)c(OC)c(OC)c2)[C@H]1OC | TAB165 | true |
| CN1CC(=O)N=C1N | TAB165 | false |
| COc1ccc(CC(N)C(=O)NC2C(CO)OC(n3cnc4c(N(C)C)ncnc43)C2O)cc1 (centres undefined) | TAB165 | true |
| CO[C@@H]1C[C@H](O[C@H]2[C@@H](C)[C@H](O[C@@H]3O[C@@H](C)C[C@@H](N(C)C)[C@@H]3OC(C)=O)[C@H](C)C[C@]3(CO3)C(=O)[C@H](C)[C@H](OC(C)=O)[C@H](C)[C@H](C)OC(=O)[C@@H]2C)O[C@H](C)[C@@H]1OC(C)=O | TAB165 | false |
| CC[C@@]12CCCN3CCc4c(n(c5ccccc45)[C@](O)(C(=O)OC)C1)C32 (some centres undefined) | TAB165 | false |
| COC1C=CO[C@@]2(C)Oc3c(C)c(O)c4c(O)c(c(C=NN5CCN(C)CC5)c(O)c4c3C2=O)NC(=O)/C(C)=C\C=CC(C)C(O)[C@@H](C)C(O)C(C)[C@H](OC(C)=O)C1C (some centres undefined) | TAB165 | true |
| CC1(C)SC2C(N3C(=O)C(c4ccccc4)NC3(C)C)C(=O)N2C1C(=O)O (centres undefined) | TAB165 | false |
| COC(=O)C(Cc1ccccc1)NC(=O)C(N)CC(=O)O (stereo not drawn) (H-Asp-Phe-OMe; configuration not given here) | TAB165 | false |
| CO[C@]1(NC(=O)C2SC(=C(C(N)=O)C(=O)O)S2)C(=O)N2C(C(=O)O)=C(CSc3nnnn3C)CS[C@H]21 (some centres undefined) | TAB165 | false |
| COc1cc(C2c3cc4c(cc3C(O[C@@H]3OC5COC(c6cccs6)OC5C(O)C3O)C3COC(=O)C23)OCO4)cc(OC)c1O (some centres undefined) | TAB165 | true |
| CC(=O)[C@@]1(O)CC[C@H]2[C@H]3C[C@@H](C)C4=CC(=O)C=C[C@]4(C)[C@@]3(F)[C@@H](O)C[C@]21C | TAB165 | false |
| CC(C)Oc1ccc2c(=O)cc(-c3ccccc3)oc2c1 | TAB165 | false |
| CN[C@H]1[C@H](O)[C@@H](O[C@@H]2[C@H](O)[C@@H](O[C@H]3OC(CN)=CC[C@H]3N)[C@@H](N)C[C@H]2N)OC[C@@]1(C)O | TAB165 | false |
| NC[C@@H]1O[C@H](O[C@@H]2[C@H](O[C@@H]3O[C@H](CO)[C@@H](O)[C@@H]3O)[C@@H](O)[C@@H](N)C[C@H]2N)[C@@H](N)[C@H](O)[C@@H]1O | TAB165 | false |
| CCC(CCC(C)C1CCC2C3CC=C4CC(O)CC[C@@]4(C)C3CC[C@@]12C)C(C)C (some centres undefined) | TAB165 | false |
| CC1(C)OC2CO[C@]3(COS(N)(=O)=O)OC(C)(C)OC3C2O1 (some centres undefined) | TAB165 | false |
| CCOC(=O)Oc1c(OC)cc(C(=O)O[C@H]2C[C@H]3CN4CCc5c([nH]c6cc(OC)ccc56)[C@@H]4C[C@H]3[C@@H](C(=O)OC)[C@@H]2OC)cc1OC | TAB165 | true |
| Cc1onc(-c2ccccc2Cl)c1C(=O)N[C@H]1C(=O)N2[C@H]1SC(C)(C)[C@H]2C(=O)O | TAB165 | false |
| Clc1ccc([C@H](Cn2ccnc2)OCc2c(Cl)cccc2Cl)c(Cl)c1 | TAB165 | true |
| Cn1nnnc1SCC1=C(C(=O)O)N2C(=O)[C@@H](NC(=O)[C@@H](O)c3ccccc3)[C@@H]2SC1 | TAB165 | false |
| CC(=O)OCC(=O)[C@@]1(O)[C@H](C)C[C@@H]2[C@H]3CCC4=CC(=O)C=C[C@]4(C)[C@]3(F)[C@@H](O)C[C@@]21C | TAB165 | false |

* * *

# Tested on: CP185
# Test: qHTS profiling for inhibitors of Plasmodium falciparum proliferation (AID 504749); also: nearly all actives have a fitted effect of over 60% in size
# Measurement parameters: P. falciparum in erythrocytes, SYBR Green DNA, 72 h; series mostly up to 12.8 µM
Results filed as inconclusive are left out. Activity calls are given as the source filed them. Calls come from the whole dose curve; as a rule, active = well fitted inhibition curve with a large enough effect; inconclusive = small, poorly fitted or top-dose-only effect; inactive = flat fitted curve, though single readings scatter.
Possible outcomes: 1.0 for active, 0.0 for inactive

| Compound | Qualitative label |
| --- | --- |
| NC(=O)N[C@H]1NC(=O)NC1=O | 0.0 |
| CCO[C@H]1O[C@@H]([C@H](COCc2ccccc2)OCc2ccccc2)[C@@H](OCc2ccccc2)[C@H]1O | 0.0 |
| CC1C2CCC3C4CC=C5CC(N(C)C)CC[C@@]5(C)C4CC[C@@]32CN1C (stereo partly specified) | 0.0 |
| COc1cc(C2c3cc4c(cc3C(O[C@@H]3OC5COC(c6cccs6)OC5C(O)C3O)C3COC(=O)C23)OCO4)cc(OC)c1O (stereo partly specified) | 1.0 |
| CO[C@]12C(COC(N)=O)C3=C(C(=O)C(C)=C(N)C3=O)N1CC1NC12 (stereo partly specified) | 1.0 |
| CC(=O)C[C@H](c1ccc([N+](=O)[O-])cc1)c1c(O)c2ccccc2oc1=O | 0.0 |
| O=C(O)COCCN1CCN([C@@H](c2ccccc2)c2ccc(Cl)cc2)CC1 | 0.0 |
| CNC1CC(N)[C@H](O)[C@@H](O[C@@H]2OC(CO)C3OC4(OC(C(N)CO)C(O)C(O)C4O)O[C@@H]3[C@H]2O)C1O (stereo partly specified) | 0.0 |
| CC(=O)OCC(=O)[C@@]1(O)CC[C@@H]2[C@H]3CCC4=CC(=O)C=C[C@]4(C)[C@]3(F)[C@@H](O)C[C@@]21C | 0.0 |
| CC(C)NC[C@H]1CCc2cc(CO)c([N+](=O)[O-])cc2N1 | 0.0 |
| OCC1O[C@H](OC2C(CO)O[C@@](O)(CO)C2O)C(O)C(O)C1O (stereo partly specified) | 0.0 |
| CC1CCC(C(C)C)C(=O)C1 (stereo unspecified) | 0.0 |
| CC[C@@H]1OC(=O)[C@H](C)[C@H](O[C@@H]2C[C@](C)(OC)[C@H](O)[C@H](C)O2)[C@H](C)[C@H](O[C@@H]2O[C@@H](C)C[C@@H](N(C)C)[C@@H]2O)[C@](C)(O)C[C@H](C)C(=NOCOCCOC)[C@H](C)[C@H](O)[C@]1(C)O | 0.0 |
| CC(C)(C)NC(=O)[C@@H]1CC[C@@H]2[C@@H]3CC[C@@H]4NC(=O)C=C[C@@]4(C)[C@H]3CC[C@]21C | 0.0 |
| CCC1OC(=O)C(C)[C@@H](O[C@H]2C[C@@](C)(OC)C(O)C(C)O2)C(C)[C@@H](O[C@@H]2OC(C)CC(N(C)C)C2O)[C@@](C)(O)CC(C)C(=O)[C@@H](C)C(O)[C@]1(C)O (stereo partly specified) | 0.0 |
| NC(=O)c1ccc[n+]([C@@H]2O[C@H](COP(=O)([O-])OP(=O)(O)OC[C@H]3O[C@@H](n4cnc5c(N)ncnc54)[C@@H](O)[C@@H]3O)[C@@H](O)[C@@H]2O)c1 | 0.0 |
